- assay_system: ATP-binding cassette transporter A1 (ABCA1) (mouse, UniProt P41233 1-2261)
- Sequence (P41233 whole entry): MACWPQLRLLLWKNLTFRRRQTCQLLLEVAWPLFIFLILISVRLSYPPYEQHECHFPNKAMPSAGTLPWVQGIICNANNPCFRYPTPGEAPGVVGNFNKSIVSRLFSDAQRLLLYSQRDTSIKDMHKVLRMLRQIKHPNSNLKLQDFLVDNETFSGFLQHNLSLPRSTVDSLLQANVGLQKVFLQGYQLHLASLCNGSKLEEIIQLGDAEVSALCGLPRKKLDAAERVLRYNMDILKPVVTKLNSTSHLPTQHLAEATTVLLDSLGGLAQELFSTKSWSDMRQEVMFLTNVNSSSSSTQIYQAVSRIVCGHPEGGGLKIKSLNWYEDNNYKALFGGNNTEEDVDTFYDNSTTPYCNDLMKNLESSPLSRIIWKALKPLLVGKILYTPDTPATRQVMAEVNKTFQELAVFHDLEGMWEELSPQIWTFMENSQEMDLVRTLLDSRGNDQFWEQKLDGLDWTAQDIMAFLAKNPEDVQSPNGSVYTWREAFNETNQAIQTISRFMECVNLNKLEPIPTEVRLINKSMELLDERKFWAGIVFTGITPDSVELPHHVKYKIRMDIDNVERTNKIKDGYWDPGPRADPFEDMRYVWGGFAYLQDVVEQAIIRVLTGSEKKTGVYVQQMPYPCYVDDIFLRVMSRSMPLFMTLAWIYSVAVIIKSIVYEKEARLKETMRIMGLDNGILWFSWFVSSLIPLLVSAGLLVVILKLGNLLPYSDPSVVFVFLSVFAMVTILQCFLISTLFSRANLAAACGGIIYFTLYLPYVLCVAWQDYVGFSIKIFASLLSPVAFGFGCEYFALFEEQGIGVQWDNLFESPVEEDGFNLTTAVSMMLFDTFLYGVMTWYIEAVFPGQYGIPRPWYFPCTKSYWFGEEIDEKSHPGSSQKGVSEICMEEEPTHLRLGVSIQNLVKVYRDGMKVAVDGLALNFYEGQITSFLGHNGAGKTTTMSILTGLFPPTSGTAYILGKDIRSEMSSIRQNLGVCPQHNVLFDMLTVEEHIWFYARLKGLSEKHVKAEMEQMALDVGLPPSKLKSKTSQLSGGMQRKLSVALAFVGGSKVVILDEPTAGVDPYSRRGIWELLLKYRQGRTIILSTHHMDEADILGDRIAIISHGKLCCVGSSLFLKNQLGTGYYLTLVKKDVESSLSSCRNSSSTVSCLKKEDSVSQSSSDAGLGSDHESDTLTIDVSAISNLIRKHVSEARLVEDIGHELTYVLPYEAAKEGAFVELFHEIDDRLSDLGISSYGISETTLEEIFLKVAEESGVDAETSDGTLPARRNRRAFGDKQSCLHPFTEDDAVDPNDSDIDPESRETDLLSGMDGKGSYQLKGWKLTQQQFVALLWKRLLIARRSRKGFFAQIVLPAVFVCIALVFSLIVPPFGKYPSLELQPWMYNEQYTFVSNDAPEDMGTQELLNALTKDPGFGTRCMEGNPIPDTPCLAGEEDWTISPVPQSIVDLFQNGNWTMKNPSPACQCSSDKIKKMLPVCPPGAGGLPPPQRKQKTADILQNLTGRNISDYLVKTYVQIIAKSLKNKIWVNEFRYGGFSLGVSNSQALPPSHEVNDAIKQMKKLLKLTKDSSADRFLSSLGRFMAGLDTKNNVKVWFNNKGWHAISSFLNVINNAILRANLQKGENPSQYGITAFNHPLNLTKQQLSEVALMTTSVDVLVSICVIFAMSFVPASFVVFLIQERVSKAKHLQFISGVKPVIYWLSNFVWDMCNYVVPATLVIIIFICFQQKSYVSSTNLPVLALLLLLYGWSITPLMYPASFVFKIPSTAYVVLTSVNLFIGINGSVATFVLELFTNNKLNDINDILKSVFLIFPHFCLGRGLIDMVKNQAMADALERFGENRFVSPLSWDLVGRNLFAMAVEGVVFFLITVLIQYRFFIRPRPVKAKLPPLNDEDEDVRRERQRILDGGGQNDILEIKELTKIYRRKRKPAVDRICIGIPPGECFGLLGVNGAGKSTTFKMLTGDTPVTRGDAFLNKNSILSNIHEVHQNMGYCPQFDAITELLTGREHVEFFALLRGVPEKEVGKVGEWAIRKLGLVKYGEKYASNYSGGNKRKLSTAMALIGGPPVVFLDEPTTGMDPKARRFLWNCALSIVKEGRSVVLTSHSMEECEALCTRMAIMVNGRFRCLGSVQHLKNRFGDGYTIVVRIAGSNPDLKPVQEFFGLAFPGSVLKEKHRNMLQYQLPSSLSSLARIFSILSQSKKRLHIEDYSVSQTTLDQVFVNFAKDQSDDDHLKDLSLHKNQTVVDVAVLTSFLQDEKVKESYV
- procedure_details: cell-based or functional assay
Where no end group is shown, it is not given here. [ ]: non-standard residue; d: D form. dGly(6-heptenyl) = C=CCCCCC[C@@H](N)C(=O)O; Ala(5-hexenyl) = C=CCCCCC[C@H](N)C(=O)O; dNle(6-vinyl) = C=CCCCC[C@@H](N)C(=O)O; R5H = not defined here
assay_readout: ABCA1-dependent cholesterol efflux EC50 (µM)
Give your result in µM as a bare value.

[[record]]
binder = "Ac-PVLDEFREKLNE[dGly(6-heptenyl)]LEALKQKLK (not fully specified (C-terminus)) [CONS[R7H^13]]"
assay_readout = "ABCA1-dependent cholesterol efflux EC50"
experimental_value = 7.2

[[record]]
binder = "Ac-PVLDEFRE[R5H]LNE[R5H]LEALKQKLK (reading uncertain) [R5H [K9-E13]R5H OPEN]"
assay_readout = "ABCA1-dependent cholesterol efflux EC50"
experimental_value = 46

[[record]]
binder = "Ac-P[Ala(5-hexenyl)]LDE[Ala(5-hexenyl)]REKLNE[Ala(5-hexenyl)]LEALKQKLK [CONS[S7H^2,6,13]]"
assay_readout = "ABCA1-dependent cholesterol efflux EC50"
experimental_value = 0.1


Next binder, please.
Given the entry Ac-PVLDE[Ala(5-hexenyl)]REKLNE[dNle(6-vinyl)]LEALKQKLK [S7H [F6-E13]R6H OPEN] , report its measured ABCA1-dependent cholesterol efflux EC50.
1.3
